Target: T1, human TIGIT ECD-his (fusion protein of extracellular domain of human TIGIT and His-tag) (human)
T1 construct: entry includes the signal peptide, limits not readable here
T1 chain: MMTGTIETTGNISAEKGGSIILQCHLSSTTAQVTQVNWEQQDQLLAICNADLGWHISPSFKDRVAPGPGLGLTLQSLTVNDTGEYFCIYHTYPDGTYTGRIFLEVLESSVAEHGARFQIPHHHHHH
Assay: BIAcore kinetics
Quick list: Kd per entry.
attribute-measured: Kd (pM)

binder	attribute-measured	recorded-measurement
TIGIT-CHI-005 (antibody, V domains shown, human-mouse chimeric antibody) VH: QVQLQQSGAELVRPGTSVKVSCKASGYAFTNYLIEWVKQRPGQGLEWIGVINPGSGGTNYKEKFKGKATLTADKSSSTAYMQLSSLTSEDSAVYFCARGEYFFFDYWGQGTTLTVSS VL: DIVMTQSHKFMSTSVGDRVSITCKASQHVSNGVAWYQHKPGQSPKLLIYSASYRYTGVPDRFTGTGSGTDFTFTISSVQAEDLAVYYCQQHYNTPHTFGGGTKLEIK	Kd	53.6
TIGIT-CHI-070 (antibody, V domains shown, human-mouse chimeric antibody) VH: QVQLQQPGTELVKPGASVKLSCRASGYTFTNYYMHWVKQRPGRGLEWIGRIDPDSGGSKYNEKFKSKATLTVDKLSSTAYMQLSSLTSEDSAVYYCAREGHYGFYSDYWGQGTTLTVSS VL: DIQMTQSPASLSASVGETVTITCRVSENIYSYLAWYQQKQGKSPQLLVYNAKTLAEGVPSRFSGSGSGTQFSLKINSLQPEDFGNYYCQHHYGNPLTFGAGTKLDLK	Kd	300
TIGIT-CHI-002 (antibody, V domains shown, human-mouse chimeric antibody) VH: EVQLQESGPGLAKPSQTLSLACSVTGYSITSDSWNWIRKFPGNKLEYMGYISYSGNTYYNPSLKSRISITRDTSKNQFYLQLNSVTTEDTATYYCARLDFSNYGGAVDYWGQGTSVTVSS VL: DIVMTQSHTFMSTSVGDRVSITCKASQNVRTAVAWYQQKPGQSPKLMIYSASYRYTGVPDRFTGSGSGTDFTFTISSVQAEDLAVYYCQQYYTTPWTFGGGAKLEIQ	Kd	69.7
TIGIT-CHI-006 (antibody, V domains shown, human-mouse chimeric antibody) VH: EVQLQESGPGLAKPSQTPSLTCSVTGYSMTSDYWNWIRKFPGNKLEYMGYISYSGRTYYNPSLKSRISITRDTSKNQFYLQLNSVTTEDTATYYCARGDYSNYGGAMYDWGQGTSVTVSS VL: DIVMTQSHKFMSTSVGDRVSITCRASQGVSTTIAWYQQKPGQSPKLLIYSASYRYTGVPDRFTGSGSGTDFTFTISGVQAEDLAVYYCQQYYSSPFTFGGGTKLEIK	Kd	132
